test_system: T1, human GFRα3 expressed with a C-terminal mFc tag (human)
T1 construct: also called hGFRα3-mFc
T1 chain: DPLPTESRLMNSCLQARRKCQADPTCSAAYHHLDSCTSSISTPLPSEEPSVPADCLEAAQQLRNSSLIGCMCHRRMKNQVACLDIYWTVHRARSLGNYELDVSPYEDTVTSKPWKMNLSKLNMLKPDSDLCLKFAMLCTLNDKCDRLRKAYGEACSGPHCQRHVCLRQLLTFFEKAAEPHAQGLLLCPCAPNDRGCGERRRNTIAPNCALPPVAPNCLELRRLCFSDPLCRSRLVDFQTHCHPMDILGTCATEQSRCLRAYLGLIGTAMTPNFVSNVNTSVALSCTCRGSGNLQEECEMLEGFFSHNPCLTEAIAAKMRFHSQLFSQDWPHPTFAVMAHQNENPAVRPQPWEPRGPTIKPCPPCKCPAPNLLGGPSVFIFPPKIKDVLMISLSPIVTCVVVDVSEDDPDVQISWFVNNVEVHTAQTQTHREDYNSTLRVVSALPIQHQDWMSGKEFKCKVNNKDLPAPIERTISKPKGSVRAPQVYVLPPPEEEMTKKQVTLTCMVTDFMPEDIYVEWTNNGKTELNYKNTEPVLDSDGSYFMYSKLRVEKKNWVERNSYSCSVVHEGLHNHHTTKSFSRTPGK
assay_info: SPR, Ab captured, 37C
pKd: −log10 of the molar value.
pKd for assorted binders
measured_quantity: pKd

>  <binder>
H4H2364S (antibody, human IgG4, V domains shown, human IgG4 Fc (H4H)) VH: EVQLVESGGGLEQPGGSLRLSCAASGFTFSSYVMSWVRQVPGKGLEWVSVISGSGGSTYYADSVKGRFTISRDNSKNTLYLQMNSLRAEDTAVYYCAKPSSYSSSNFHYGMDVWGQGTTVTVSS VL: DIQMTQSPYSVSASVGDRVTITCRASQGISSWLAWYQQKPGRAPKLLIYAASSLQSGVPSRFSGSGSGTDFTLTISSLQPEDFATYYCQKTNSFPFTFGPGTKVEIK

>  <measured_quantity>
pKd

>  <reported_measurement>
10.48

$$$$
>  <binder>
H4H2350P (antibody, human IgG4, V domains shown, human IgG4 Fc (H4H)) VH: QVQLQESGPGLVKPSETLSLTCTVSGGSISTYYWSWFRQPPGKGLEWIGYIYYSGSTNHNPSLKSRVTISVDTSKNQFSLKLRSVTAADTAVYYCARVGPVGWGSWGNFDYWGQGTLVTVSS VL: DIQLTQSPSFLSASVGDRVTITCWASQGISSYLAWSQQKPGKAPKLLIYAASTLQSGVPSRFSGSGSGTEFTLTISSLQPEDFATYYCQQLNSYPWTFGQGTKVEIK

>  <measured_quantity>
pKd

>  <reported_measurement>
10.31

$$$$
>  <binder>
H4H2342P (antibody, human IgG4, V domains shown, human IgG4 Fc (H4H)) VH: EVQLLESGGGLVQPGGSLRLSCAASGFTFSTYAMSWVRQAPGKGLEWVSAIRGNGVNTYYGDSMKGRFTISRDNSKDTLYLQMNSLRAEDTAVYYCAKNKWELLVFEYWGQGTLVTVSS VL: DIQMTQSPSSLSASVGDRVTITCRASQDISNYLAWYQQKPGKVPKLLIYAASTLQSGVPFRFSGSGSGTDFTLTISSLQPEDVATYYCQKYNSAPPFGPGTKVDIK

>  <measured_quantity>
pKd

>  <reported_measurement>
10.45

$$$$
>  <binder>
H4H2346S (antibody, human IgG4, V domains shown, human IgG4 Fc (H4H)) VH: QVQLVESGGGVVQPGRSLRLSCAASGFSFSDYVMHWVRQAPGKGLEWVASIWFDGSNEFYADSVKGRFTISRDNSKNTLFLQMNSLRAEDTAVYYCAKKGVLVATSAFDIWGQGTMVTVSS VL: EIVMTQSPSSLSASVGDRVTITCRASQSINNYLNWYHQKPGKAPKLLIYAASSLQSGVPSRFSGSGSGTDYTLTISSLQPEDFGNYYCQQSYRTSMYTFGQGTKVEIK

>  <measured_quantity>
pKd

>  <reported_measurement>
10.11

$$$$
>  <binder>
H4H2354S (antibody, human IgG4, V domains shown, human IgG4 Fc (H4H); also called H4H2354S-1) VH: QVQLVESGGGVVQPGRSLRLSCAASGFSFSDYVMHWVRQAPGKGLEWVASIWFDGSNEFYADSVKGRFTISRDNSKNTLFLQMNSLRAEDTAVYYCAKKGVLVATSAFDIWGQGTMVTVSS VL: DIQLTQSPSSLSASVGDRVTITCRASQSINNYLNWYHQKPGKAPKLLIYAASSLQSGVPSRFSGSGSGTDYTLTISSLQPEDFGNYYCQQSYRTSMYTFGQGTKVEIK

>  <measured_quantity>
pKd

>  <reported_measurement>
10.05

$$$$
